Test system: HCT-116 colon
Experiment: NCI-60 one-dose screen, 48 h
Conditions: 10 µM unless noted
The panel holds about 83,000 compounds, 20% with a hit somewhere; the sample as a whole holds those more often. Calls of active or inactive are those of the source. Rule for the calls: active = growth percent below 10; inactive = the rest.
Please reply with one of these outcomes: active, inactive

CN1CCN(CCCOc2cccc3nc(Nc4ccc(Cl)c(C(F)(F)F)c4)ccc23)CC1 = active
CN(C)C/C=C/C(=O)Nc1cc2c(Nc3ccc(F)c(Cl)c3)ncnc2cc1O[C@H]1CCOC1 = active
COc1cc2ncnc3c2cc1OCCCCCN(C)Cc1ccc(Br)cc1N3 = inactive
OCCNC(=S)Nc1ccc(-c2nc(N3C[C@H]4CC[C@@H](C3)O4)c3cccn3n2)cc1 = inactive
Cc1nc2ccc(-n3ncc(C(=O)c4cc5ccccc5[nH]4)c3N)cc2[nH]1 = inactive

query: # lookup: test call for "N#Cc1c(NC(=O)c2ccco2)[n+]([O-])c2cc(F)c(F)cc2[n+]1[O-]"
result: inactive

query: # lookup: test call for "NC1=Nc2cc(OCCCN3Cc4ccccc4C3)c(OCC3CC3)cc2C12CCCC2"
result: inactive

query: # lookup: test call for CC1(O)CC(c2nc(-c3ccc4ccc(-c5ccccc5)nc4c3)c3c(N)nccn23)C1 (stereo not given)
result: inactive

query: # lookup: test call for "C=CC(=O)Nc1cccc(Nc2nc(Nc3ccc(N4CCN(C(C)=O)CC4)cc3OC)ncc2C(F)(F)F)c1"
result: inactive

query: # lookup: test call for COc1ccc(C2OC(c3cc(-c4cc5ccccc5o4)nn3-c3ccccc3)=NN2C(C)=O)cc1 (stereo not given)
result: inactive

query: # lookup: test call for "COC(=O)c1[nH]cnc1/N=N/N(C)CCO"
result: inactive

query: # lookup: test call for "Cc1ccc(F)c(NC(=O)Nc2ccc(-c3cccc4[nH]nc(N)c34)cc2)c1"
result: active

query: # lookup: test call for "CNc1ncc2cc(-c3cc(NC(=O)NCCC(C)(C)C)c(F)cc3C)c(C)nc2n1"
result: active

query: # lookup: test call for "COc1cc(CCc2cc(NC(=O)c3ccc(N4C[C@@H](C)N[C@@H](C)C4)cc3)n[nH]2)cc(OC)c1"
result: inactive

query: # lookup: test call for "C[C@@H](Nc1cc(F)cc(F)c1)c1cc(C(=O)N(C)C)cc2c(=O)cc(N3CCOCC3)oc12"
result: inactive

query: # lookup: test call for "Clc1ccc2c(NCCNc3nc(N4CCCC4)nc4ccccc34)ccnc2c1"
result: active

query: # lookup: test call for "CCN(CCO)CCCOc1ccc2c(Nc3cc(CC(=O)Nc4cccc(F)c4)[nH]n3)ncnc2c1"
result: inactive

query: # lookup: test call for "CC/C=C\C[C@H]1C/C=C2/C(=O)C=C[C@@H]2C/C=C\CCCC(=O)O1"
result: active

query: # lookup: test call for "CC(C)[C@@H]1CC[C@]2(CO2)[C@@H]2C(=O)OCC(C(=O)O)=C[C@H]21"
result: active

query: # lookup: test call for "CO[C@H]1C[C@@H]2CC[C@@H](C)[C@@](O)(O2)C(=O)C(=O)N2CCCC[C@H]2C(=O)O[C@H]([C@H](C)C[C@@H]2CC[C@@H](OP(C)(C)=O)[C@H](OC)C2)CC(=O)[C@H](C)/C=C(\C)[C@@H](O)[C@@H](OC)C(=O)[C@H](C)C[C@H](C)\C=C/C=C/C=C/1C"
result: inactive

query: # lookup: test call for "CN1CCN(c2nc(NCCNc3ccnc4cc(Cl)ccc34)c3ccccc3n2)CC1"
result: active

query: # lookup: test call for CC(=O)CC1CCCC1c1ccc2ccccc2c1 (stereo not given)
result: inactive

query: # lookup: test call for "O=C(c1c(F)ccc(NS(=O)(=O)N2CC[C@@H](F)C2)c1F)c1c[nH]c2ncc(-c3cnc(C4CC4)nc3)cc12"
result: inactive

query: # lookup: test call for "COc1cc(F)c(F)c(Nc2ccc(I)cc2F)c1NS(=O)(=O)C1(C[C@H](O)CO)CC1"
result: inactive

query: # lookup: test call for CCCc1cc2cc(-n3nc(C)c4c3CC(C)(C)CC4=O)cc(NC3CCC(O)CC3)c2c(=O)[nH]1 (stereo not given)
result: inactive

query: # lookup: test call for COc1c(C(NC(=O)c2ccccc2)c2sccc2C)cc(Cl)c2cccnc12 (stereo not given)
result: inactive

query: # lookup: test call for Nc1ncnc2c1c(-c1cccc(OCc3ccccc3)c1)cn2C1CC(CN2CCC2)C1 (stereo not given)
result: active

query: # lookup: test call for "CCN1CCN(Cc2ccc(-c3cc4c(N[C@H](C)c5ccccc5)ncnc4[nH]3)cc2)CC1"
result: inactive

FYI, the data here is from PubChem BioAssay (NCI).
